- Test system: HCC1428
- test-summary: CTG assay for proliferation inhibition of cell lines
- Format: cell-based
- applied-conditions: HCC1428, 7 days, CellTiter Glo
value-kind: IC50 (µM)
Value expressed in µM; do not type the unit.

The examples below pair each entry with its known result.
In [3]: df
Out[3]:
                                   compound  value_kind  result
0  CC(C)S(=O)(=O)C1CC=C(c2cc(S(=O)(=O)NC3(C#N)CC3)cc3c(-c4nnc(C(F)F)s4)nn(C)c23)CC1 (stereo not drawn)        IC50   0.507
1  Cn1nc(-c2nnc(C(F)(F)F)s2)c2cc(S(=O)(=O)NC3(C#N)CC3)cc(C3=CCN(S(=O)(=O)c4cccnc4)CC3)c21        IC50    2.52

// below: IC50 requested for another compound
Measured IC50 for this entry CC(C)S(=O)(=O)c1ccc(-c2cc(S(=O)(=O)NC3(C#N)CC3)cc3c(-c4nnc(C(F)(F)F)s4)nn(C)c23)cn1 on HCC1428: 1.91

====

# pIC50 values compiled below
- assayed-target: PARG (389-976) (Homo sapiens (Human), UniProt Q86W56)
- Sequence (Q86W56 389-976): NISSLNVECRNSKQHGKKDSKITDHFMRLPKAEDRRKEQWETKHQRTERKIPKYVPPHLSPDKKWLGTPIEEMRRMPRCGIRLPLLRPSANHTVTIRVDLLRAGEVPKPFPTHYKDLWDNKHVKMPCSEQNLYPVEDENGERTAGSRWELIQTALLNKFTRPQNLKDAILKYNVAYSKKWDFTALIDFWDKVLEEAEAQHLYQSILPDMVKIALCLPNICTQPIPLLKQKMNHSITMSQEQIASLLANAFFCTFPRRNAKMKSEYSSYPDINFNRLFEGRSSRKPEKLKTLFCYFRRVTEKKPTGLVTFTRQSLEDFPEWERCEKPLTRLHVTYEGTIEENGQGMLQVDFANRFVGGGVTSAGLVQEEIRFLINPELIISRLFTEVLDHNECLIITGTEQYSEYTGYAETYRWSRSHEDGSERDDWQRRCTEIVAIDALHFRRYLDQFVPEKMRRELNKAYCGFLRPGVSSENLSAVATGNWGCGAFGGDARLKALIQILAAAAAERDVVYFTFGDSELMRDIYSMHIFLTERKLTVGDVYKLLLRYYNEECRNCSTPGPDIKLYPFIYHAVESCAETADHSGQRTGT
- test-summary: PARG enzyme inhibition assay (TR-FRET)
- Type: biochemical
- applied-conditions: numeric value in parentheses under the class symbol
Entry type: numeric. Quantity: pIC50, the -log10 of concentration in molar units.

The examples below pair each entry with its known result.
>>> print(df.to_string())
                                   compound  result
0  CN(C)S(=O)(=O)N1CC=C(c2cc(S(=O)(=O)NC3(C#N)CC3)cc3c(-c4nnc(C(F)F)s4)nn(C)c23)CC1 [Compound 32]    8.99
1  CN(C)S(=O)(=O)N1CCN(c2cc(S(=O)(=O)NC3(C#N)CC3)cc3c(-c4nnc(C(F)F)s4)nn(C)c23)CC1 [Compound 3]    8.79
2  COCCn1nc(-c2nnc(C(F)F)s2)c2cc(S(=O)(=O)NC3(C#N)CC3)cc(N3CCN(S(=O)(=O)C(C)C)CC3)c21 [Compound 2]    9.57
3  CC(C)S(=O)(=O)N1CC=C(c2cc(S(=O)(=O)NC3(CF)CC3)cc3c(-c4nnc(C(F)F)s4)nn(C)c23)CC1 [Compound 18]    9.92
4  CC(C)[S+]([O-])C1CC=C(c2cc(S(=O)(=O)NC3(C#N)CC3)cc3c(-c4nnc(C(F)F)s4)nn(C)c23)CC1 (stereo not drawn) [Compound 30]    9.21

// below: pIC50 requested for another compound
Looking up COCCn1nc(-c2nnc(C(F)F)s2)c2cc(S(=O)(=O)NC3(C#N)CC3)cc(C3=CCN(S(=O)(=O)C(C)C)CC3)c21 [Compound 1] , I found its pIC50 recorded as 9.70

====

# pIC50 values compiled below
- assayed-target: PARG (389-976) (Homo sapiens (Human))
- test-summary: PARG enzyme inhibition assay (TR-FRET)
- Assay type: biochemical
- applied-conditions: class symbol; Bio PARylated His-TEV-PARP1 substrate, TR-FRET
pIC50: −log10 of the molar value.

Measured pIC50 for this entry CC(C)[S+]([O-])N1CC=C(c2cc(S(=O)(=O)NC3(C#N)CC3)cc3c(-c4nnc(C(F)F)s4)nn(C)c23)CC1 (stereo not drawn) [Compound 25] on PARG (389-976) (Homo sapiens (Human)): > 9.00

Measured pIC50 for this entry CC(C)S(=O)(=O)N1CCC(c2cc(S(=O)(=O)NC3(C#N)CC3)cc3c(-c4nnc(C(F)F)s4)nn(C)c23)=C(C(=O)O)C1 [Compound 34] on PARG (389-976) (Homo sapiens (Human)): 7.00 to 8.00

Measured pIC50 for this entry CC(C)S(=O)(=O)N1CC=C(c2cc(S(=O)(=O)NC3(C(N)=O)CC3)cc3c(-c4nnc(C(F)(F)F)s4)nn(C)c23)CC1 [Compound 57] on PARG (389-976) (Homo sapiens (Human)): 7.00 to 8.00
